Hello, the source for this data is ChEMBL document CHEMBL1143454, in case you need it.

Observed IC50, system Vascular endothelial growth factor receptor 2 (Homo sapiens).

CC(C)(C)NC(=O)c1ccc(-c2nnc(Nc3ccc(OC(F)(F)Cl)cc3)c3ccccc23)cc1 > 10 µM
CCOc1ccc(-c2nnc(Nc3ccc(C)cc3)c3ccccc23)cc1 > 10 µM
COc1ccc(Nc2nnc(-c3ccc(C(N)=O)cc3)c3ccccc23)cc1 2 µM

Now consider the entry below.
IN: Item: Cc1ccc(-c2nnc(Nc3ccc(OC(F)(F)Cl)cc3)c3ccccc23)cc1S(=O)(=O)NC(C)C Test system: Vascular endothelial growth factor receptor 2 (Homo sapiens) Read-out: IC50 Value: ?
OUT: > 10 µM
